Assay: In vitro human hepatocytes clearance assay
Assay type: in vitro ADME
measure_name: Human Hep Clint (μL/min/10∧6 cells)

- compound: "Nc1ncnn2c(C3CCC(CO)OC3)nc(-c3ccc(Oc4ccccc4)cc3F)c12 (single isomer, unassigned) [Compound 10]"
  measure_unit: "μL/min/10∧6 cells"
  measured_result: 1.7
- compound: "Nc1ncnn2c(C3CCC(CO)OC3)nc(-c3ccc(Oc4ccccc4)cc3F)c12 (single isomer, unassigned) [Compound 8]"
  measure_unit: "μL/min/10∧6 cells"
  measured_result: 6.1
- compound: "Nc1nccn2c(C3CCC(CO)OC3)nc(-c3ccc(Oc4cccc(F)c4F)cc3)c12 (single isomer, unassigned) [Compound 6]"
  measure_unit: "μL/min/10∧6 cells"
  measured_result: 2.1
- compound: "Nc1nccn2c(C3CCC(CO)OC3)nc(-c3ccc(Oc4ccccc4)cc3)c12 (centres unmarked) [Compound 1]"
  measure_unit: "μL/min/10∧6 cells"
  measured_result: 28.9
- compound: "Nc1nccn2c(C3CCC(CO)OC3)nc(-c3ccc(Oc4ccccc4)c(F)c3F)c12 (single isomer, unassigned) [Compound 5]"
  measure_unit: "μL/min/10∧6 cells"
  measured_result: 9.0
- compound: "Nc1ncnn2c(C3CCC(CO)OC3)nc(-c3ccc(Oc4ccccc4)cc3F)c12 (single isomer, unassigned) [Compound 9]"
  measure_unit: "μL/min/10∧6 cells"
  measured_result: 5.9
- compound: "Nc1ncnn2c(C3CCC(CO)OC3)nc(-c3ccc(Oc4ccccc4)c(F)c3F)c12 (centres unmarked) [Compound 12]"
  measure_unit: "μL/min/10∧6 cells"
  measured_result: 2.0
- compound: "Nc1nccn2c(C3CCC(CO)OC3)nc(-c3ccc(Oc4ccccc4)cc3F)c12 (single isomer, unassigned) [Compound 2]"
  measure_unit: "μL/min/10∧6 cells"
  measured_result: 4.6
- compound: "Nc1nccn2c(C3CCC(CO)OC3)nc(-c3ccc(Oc4ccccc4)cc3F)c12 (single isomer, unassigned) [Compound 3]"
  measure_unit: "μL/min/10∧6 cells"
  measured_result: 12.9
- compound: "Nc1nccn2c1c(-c1ccc(Oc3ccccc3)cc1)nc2[C@H]1CC[C@H](CO)CC1 [reference compound]"
  measure_unit: "μL/min/10∧6 cells"
  measured_result: 92.9
- compound: "Nc1nccn2c(C3CCC(CO)OC3)nc(-c3ccc(Oc4cccc(F)c4F)cc3)c12 (single isomer, unassigned) [Compound 7]"
  measure_unit: "μL/min/10∧6 cells"
  measured_result: 3.3
- compound: "Nc1nccn2c(C3CCC(CO)OC3)nc(-c3ccc(Oc4ccccc4)c(F)c3F)c12 (single isomer, unassigned) [Compound 4]"
  measure_unit: "μL/min/10∧6 cells"
  measured_result: 5.6
- compound: "Nc1ncnn2c(C3CCC(CO)OC3)nc(-c3ccc(Oc4ccccc4)cc3F)c12 (single isomer, unassigned) [Compound 11]"
  measure_unit: "μL/min/10∧6 cells"
  measured_result: 3.6
- compound: "Nc1ncnn2c(C3CCC(CO)OC3)nc(-c3ccc(Oc4cccc(F)c4F)cc3)c12 (centres unmarked) [Compound 15]"
  measure_unit: "μL/min/10∧6 cells"
  measured_result: 2.1

---

Target: p-BTK (Phospho-Btk Tyr223) in TMD-8 cells (Homo sapiens, UniProt Q06187)
Construct: endogenous in cells; host or cells: TMD-8
Sequence (Q06187 whole entry): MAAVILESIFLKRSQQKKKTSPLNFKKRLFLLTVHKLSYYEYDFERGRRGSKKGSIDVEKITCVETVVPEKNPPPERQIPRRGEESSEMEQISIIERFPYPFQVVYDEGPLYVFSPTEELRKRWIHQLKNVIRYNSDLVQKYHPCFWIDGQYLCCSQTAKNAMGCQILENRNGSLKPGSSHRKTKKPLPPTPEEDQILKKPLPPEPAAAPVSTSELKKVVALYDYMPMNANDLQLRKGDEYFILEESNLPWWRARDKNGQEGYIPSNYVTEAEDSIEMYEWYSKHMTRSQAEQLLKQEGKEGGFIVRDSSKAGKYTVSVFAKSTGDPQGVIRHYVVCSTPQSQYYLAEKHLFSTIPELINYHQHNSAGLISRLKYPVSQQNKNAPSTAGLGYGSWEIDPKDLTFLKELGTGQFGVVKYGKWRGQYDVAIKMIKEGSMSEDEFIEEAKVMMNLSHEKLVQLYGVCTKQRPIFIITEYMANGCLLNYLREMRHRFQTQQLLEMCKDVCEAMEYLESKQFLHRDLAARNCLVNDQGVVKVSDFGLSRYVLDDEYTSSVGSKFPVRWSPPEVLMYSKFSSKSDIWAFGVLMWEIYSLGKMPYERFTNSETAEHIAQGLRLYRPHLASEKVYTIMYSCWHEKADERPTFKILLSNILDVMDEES
Experiment: TMD8 cell line p-BTK Elisa assay
Format: cell-based
Settings: p-BTK ELISA
List of Maximal Inhibition Level values.

- compound: "Nc1ncnn2c(C3CCC(CO)OC3)nc(-c3ccc(Oc4ccccc4)cc3F)c12 (single isomer, unassigned) [Compound 8]"
  Maximal Inhibition Level (%): 100.9
- compound: "Nc1ncnn2c(C3CCC(CO)OC3)nc(-c3ccc(Oc4ccccc4)cc3F)c12 (single isomer, unassigned) [Compound 10]"
  Maximal Inhibition Level (%): 98.5
- compound: "Nc1ncnn2c(C3CCC(CO)OC3)nc(-c3ccc(Oc4ccccc4)cc3F)c12 (single isomer, unassigned) [Compound 11]"
  Maximal Inhibition Level (%): 99.3
- compound: "Nc1nccn2c(C3CCC(CO)OC3)nc(-c3ccc(Oc4ccccc4)c(F)c3F)c12 (single isomer, unassigned) [Compound 5]"
  Maximal Inhibition Level (%): 95.8
- compound: "Nc1nccn2c(C3CCC(CO)OC3)nc(-c3ccc(Oc4cccc(F)c4F)cc3)c12 (single isomer, unassigned) [Compound 6]"
  Maximal Inhibition Level (%): 98.8
- compound: "Nc1nccn2c(C3CCC(CO)OC3)nc(-c3ccc(Oc4ccccc4)cc3)c12 (stereo not drawn)"
  Maximal Inhibition Level (%): 97.9

Where these numbers come from: patent US12624039B2
